System: A20 lymphoma cells (I-A^d positive), mouse or human plasma
test.description: In vitro coagulation assay on A20 cells with capture bispecific antibody B21-2/10H10
Type: cell-based
particulars: bound via B21-2/10H10 to A20 cells; separate studies per block
value.type: concentration at which plasma coagulated in 50 seconds (pM)

{"molecule": "tTF221-cys-C′: H6-tTF221-cys-C′ without the (His)6 tag (protein) GSGTTNTVAAYNLTWKSTNFKTILEWEPKPVNQVYTVQISTKSGDWKSKCFYTTDTECDLTDEIVKDVKQTYLARVFSYPAGNVESTGSAGEPLYENSPEFTPYLETNLGQPTIQSFEQVGTKVNVTVEDERTLVRRNNTFLSLRDVFGKDLIYTLYYWKSSSSGKKTAKTNTNEFLIDVDKGENYCFSVQAVIPSRTVNRKSTDSPVECMGQEKGEFREIFC", "experimental.result": 500}
